assay: growth inhibition of WT strain, primary screen, mitochondrial fusion inhibitor project, WT and mutant strains, chemical genetic (AID 1362); details: mitochondrial fusion phenotypic screen, mutant strain inhibition; at 10 µM
The campaign covered roughly 190,000 compounds. About 4,000 (2.1%) were called active. For the sample, actives were picked, then their nearest neighbours and some compounds at random.
The compounds listed here are annotated with their inhibition.
Could you give me the number in %? Just the number is fine.

Observe how each entry below is paired with its result.
CC1(C)CCCC2=C1CC1C(=O)N(c3ccccc3)C(=O)C1C2 (stereo not given) | -1.63
CCOC(=O)c1cnc(-c2ccccc2)nc1Oc1ccc(C)cc1 | -24.7

Prompt line: Given the entry `CCOC(=O)c1cnc(-n2nc(C)cc2C)nc1NNc1cc(C)nc(-c2ccccc2)n1` , report its measured inhibition.
Response line: -11.2

Prompt line: Repeat with CC1CC2=C(CC1/C=N/NC(N)=S)C(C)(C)CCC2 (stereo not given)
Response line: 64.1

Prompt line: Repeat with `Cc1ccc(S(=O)(=O)/N=C(/Nc2ccc3[nH]c(=O)[nH]c3c2)c2ccccc2)cc1`
Response line: 0.61

// provenance: PubChem BioAssay AID1362
